A collection of molecules and their measured zone of inhibition at 600 µg/mL
Tested on: Fusarium oxysporum
test description: Antifungal activity against Fusarium oxysporum assessed as growth inhibition at 600 ug/ml
Format: functional
particulars: read-out: IZ
Note: unit mm is implicit; provide only the numeric part.

Known results for molecules:
• COc1ccc2c(OCCCN3CCN(Cc4ccc(Br)cc4)CC3)c(-c3ccccc3)c(=O)oc2c1 = 6.15
• CCC(C)n1ncn(-c2ccc(N3CCN(c4ccc(OCC5COC(Cn6cncn6)(c6ccc(Cl)cc6Cl)O5)cc4)CC3)cc2)c1=O (centres undefined) = 10.8
• COc1ccc2c(OCCCN3CCN(Cc4ccc(F)cc4F)CC3)c(-c3ccccc3)c(=O)oc2c1 = 8.56

Need zone of inhibition at 600 µg/mL of "COc1ccc2c(OCCCN3CCN(Cc4ccc[nH]4)CC3)c(-c3ccccc3)c(=O)oc2c1" , thanks. 10.2

----------
A collection of compounds and their measured zone of inhibition at 900 µg/mL
Test system: Candida albicans
test description: Antifungal activity against Candida albicans assessed as growth inhibition at 900 ug/ml
Type: functional
particulars: read-out: IZ
Note: unit mm is implicit; provide only the numeric part.

Known results for compounds:
• COc1ccc2c(OCCCN3CCN(Cc4ccc[nH]4)CC3)c(-c3ccccc3)c(=O)oc2c1 = 13.9
• COc1ccc2c(OCCCN3CCN(Cc4ccccc4)CC3)c(-c3ccccc3)c(=O)oc2c1 = 12
• COc1ccc2c(OCCCN3CCN(Cc4ccc(Cl)cc4Cl)CC3)c(-c3ccccc3)c(=O)oc2c1 = 9.56
• COc1ccc(CN2CCN(CCCOc3c(-c4ccccc4)c(=O)oc4cc(OC)ccc34)CC2)cc1 = 11
• COc1ccc2c(OCCCN3CCN(Cc4cccnc4)CC3)c(-c3ccccc3)c(=O)oc2c1 = 13.7
• CCC(C)n1ncn(-c2ccc(N3CCN(c4ccc(OCC5COC(Cn6cncn6)(c6ccc(Cl)cc6Cl)O5)cc4)CC3)cc2)c1=O (stereo not drawn) = 12
• COc1ccc2c(OCCCN3CCN(Cc4ccc(Br)cc4)CC3)c(-c3ccccc3)c(=O)oc2c1 = 10.1

Need zone of inhibition at 900 µg/mL of "COc1ccc2c(OCCCN3CCN(Cc4ccc(F)cc4F)CC3)c(-c3ccccc3)c(=O)oc2c1" , thanks. 9.6

----------
Test system: Streptococcus pyogenes
test description: Antibacterial activity against Streptococcus pyogenes assessed as growth inhibition at 900 ug/ml by NCCLS […] method
Assay type: functional
particulars: read-out: IZ
Values of zone of inhibition at 900 µg/mL greater than or equal to 10 mm map to satisfied; values below map to not satisfied.

Below are worked cases with known answers.
- COc1ccc2c(OCCCN3CCN(Cc4ccc(Br)cc4)CC3)c(-c3ccccc3)c(=O)oc2c1: satisfied
- COc1ccc(CN2CCN(CCCOc3c(-c4ccccc4)c(=O)oc4cc(OC)ccc34)CC2)cc1: not satisfied
- CCCOc1ccc(CN2CCN(CCCOc3c(-c4ccccc4)c(=O)oc4cc(OC)ccc34)CC2)cc1: not satisfied

Tell me whether zone of inhibition at 900 µg/mL is at least 10 mm here: "COc1ccc2c(OCCCN3CCN(Cc4ccccc4)CC3)c(-c3ccccc3)c(=O)oc2c1" satisfied

Tell me whether zone of inhibition at 900 µg/mL is at least 10 mm here: "CN[C@@H]1[C@H](O[C@H]2[C@H](O[C@H]3[C@H](O)[C@@H](O)[C@H](N=C(N)N)[C@@H](O)[C@@H]3N=C(N)N)O[C@@H](C)[C@]2(O)C=O)O[C@@H](CO)[C@H](O)[C@H]1O" satisfied
